Reference for the values: paper PMC4128710

Bias overview
# Test system: mouse A2BAR
# Assay comment: β-Arrestin2 translocation in PathHunter CHO cells
# Run parameters: β-Arrestin versus cAMP; bias ≫1 disfavors the pathway

Look at this molecule and give its reported Bias. OC[C@H]1O[C@@H](n2cnc3c(Nc4ccc(I)cc4)ncnc32)[C@H](O)[C@@H]1O 24

----------
# Target or test system: UniProtKB P29275
# Sequence (P29275 whole entry): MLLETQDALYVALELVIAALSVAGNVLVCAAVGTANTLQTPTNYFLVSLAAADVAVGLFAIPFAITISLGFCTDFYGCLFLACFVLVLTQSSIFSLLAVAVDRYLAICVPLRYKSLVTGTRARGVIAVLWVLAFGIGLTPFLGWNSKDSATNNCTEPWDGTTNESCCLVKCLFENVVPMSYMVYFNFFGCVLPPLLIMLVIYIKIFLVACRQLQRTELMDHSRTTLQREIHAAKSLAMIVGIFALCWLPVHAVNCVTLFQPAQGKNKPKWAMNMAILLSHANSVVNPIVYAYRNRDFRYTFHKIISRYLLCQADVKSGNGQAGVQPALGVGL
# Assay comment: cAMP accumulation in T24 cells endogenously expressing the A2BAR
# Run parameters: EC50 cAMP, T24 cells
Experimental readout: pEC50
Schema: pEC50 number; meaning minus log10 of the concentration expressed in molar units.

// map N#Cc1c(N)nc(SCC(N)=O)c(C#N)c1-c1ccc(OCC2CC2)cc1 to recorded pEC50 (system: UniProtKB P29275) 7.37
